Assign Dmax to each entry below.
Molecular target: HiBit-KRAS^G12C (Homo sapiens, UniProt P01116, G12C)
Sequence (P01116 1-186 isoform P01116-2 G12C limits assumed): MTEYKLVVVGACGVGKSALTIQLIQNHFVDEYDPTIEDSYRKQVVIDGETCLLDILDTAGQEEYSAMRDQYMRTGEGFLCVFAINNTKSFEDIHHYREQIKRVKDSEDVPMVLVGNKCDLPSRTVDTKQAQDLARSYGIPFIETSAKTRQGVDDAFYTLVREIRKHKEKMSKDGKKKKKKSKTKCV
Test: HiBit degradation assay in SW1573 HiBit-KRas^G12C cells
Type: cell-based
Design: expressed in transfected cells; host or cells: SW1573 (clone E6), modified pcDNA3.1 vector, TK promoter
Settings: SW1573, SW1573 HiBit-KRas^G12C, 0.1% DMSO, 24 hours; read-out: KRas^G12C-HiBit (SW1573; 0.1% DMSO) Dmax**
Protocol: Reagents. SW1573 (CRL-2170) and MiaPaCa-2 (CRL-1420) cells were purchased from ATCC. Both cell lines are […] for the G12C mutation in KRAS. […] Either SW1573 HiBit-KRas^G12C or MiaPaCa-2 HiBit-KRas^G12C cells were plated at 9000 cells/well in a 384 well plate (Corning #3770). […] Plates were then allowed to equilibrate to room temperature and fluorescence was measured using a Perkin-Elmer EnVision. […]

Query: Quick check: Dmax of C=CC(=O)N1CCN(c2nc(OC[C@@H]3C[C@@H](OCCOc4cc(-c5scnc5C)ccc4CNC(=O)[C@@H]4C[C@@H](O)CN4C(=O)[C@@H](c4cc(C)no4)C(C)C)CN3C)nc3c2CCN(c2cccc4ccccc24)C3)C[C@@H]1CC#N ?
Result: 35 to 70%

Query: Which Dmax is reported for this compound? C=CC(=O)N1CCN(c2nc(O[C@H](C)CN3CCC(CCC(=O)N[C@H](C(=O)N4C[C@H](O)C[C@H]4C(=O)N[C@@H](C)c4ccc(-c5scnc5C)cc4)C(C)(C)C)CC3)nc3c(F)c(-c4cc(O)cc5ccccc45)c(Cl)cc23)CC1
Result: 35 to 70%

* * *

molecular target: HiBit-KRAS^G12C (Homo sapiens, UniProt P01116, G12C); test: HiBit degradation assay in MiaPaCa-2 HiBit-KRas^G12C cells; assay type: cell-based; details: read-out: KRas^G12C-HiBiT (MiaPaCa; 0.5% DMSO) IC50; MiaPaCa-2 HiBit-KRas^G12C cells; 0.5% DMSO; 24 hours
assay.metric: DC50

Query: Tell me the measured DC50 of C=CC(=O)N1CCN(c2nc(O[C@H]3CCC[C@@H]3N3CCC(COCC(=O)N[C@H](C(=O)N4C[C@H](O)C[C@H]4C(=O)N[C@@H](C)c4ccc(-c5scnc5C)cc4)C(C)(C)C)CC3)nc3c(F)c(-c4cc(O)cc5ccccc45)c(Cl)cc23)C[C@@H]1CC#N , please.
Result: 0.1 to 1 µM

Query: Need DC50 of C=CC(=O)N1CCN(c2nc(OCCN3CCC(COc4cc([C@@H](C(=O)N5C[C@H](O)C[C@H]5C(=O)N[C@@H](C)c5ccc(C#N)cc5)C(C)C)on4)CC3)nc3c(F)c(-c4cc(O)cc5ccccc45)c(Cl)cc23)C[C@@H]1CC#N , thanks.
Result: 0.1 to 1 µM

Query: Please look up its DC50: C=CC(=O)N1CCN(c2nc(OCCN3CC[C@H](COCC(=O)N[C@H](C(=O)N4C[C@H](O)C[C@H]4C(=O)N[C@@H](C)c4ccc(-c5scnc5C)cc4)C(C)(C)C)C3)nc3c(F)c(-c4cc(O)cc5ccccc45)c(Cl)cc23)C[C@@H]1CC#N
Result: > 1 µM

Query: GET /values?readout=DC50&item= C=CC(=O)N1CCN(c2nc(N3CCN(C[C@H]4C[C@H](OCC(=O)N[C@H](C(=O)N5C[C@H](O)C[C@H]5C(=O)N[C@@H](C)c5ccc(-c6scnc6C)cc5)C(C)(C)C)C4)CC3)nc3c(F)c(-c4cc(O)cc5ccccc45)c(Cl)cc23)C[C@@H]1CC#N
Result: 0.1 to 1 µM
